test: in vitro; conditions: chicken, primary chicken embryo cells
# selectivity ratio annotations
parameter: selectivity ratio

molecule=C=C(C)[C@@H]1CC[C@]2(C(=O)OC)CC[C@]3(C)[C@H](CC[C@@H]4[C@@](C)(CC#N)[C@H](C(C)(C)/C=N/O)CC[C@]43C)[C@@H]12 test_value=35.4
molecule=C=C(C)[C@@H]1CC[C@]2(C(=O)OC)CC[C@]3(C)[C@H](CC[C@@H]4[C@@]5(C)C/C(=N\O)C(=O)C(C)(C)[C@@H]5CC[C@]43C)[C@@H]12 test_value=4.1
molecule=C=C(C)[C@@H]1CC[C@]2(C(=O)O)CC[C@]3(C)[C@H](CC[C@@H]4[C@@](C)(CC#N)[C@H](C(C)(C)C=O)CC[C@]43C)[C@@H]12 test_value=3.5
molecule="COC(=O)[C@@]1(C)CCC2(C)CC[C@]3(C)C(=CC(=O)[C@@H]4[C@@](C)(CC#N)[C@H](C(C)(C)C=O)CC[C@]43C)[C@@H]2C1 (single isomer, unassigned)" test_value=15.1
molecule=C=C(C)[C@@H]1CC[C@]2(C(=O)O)CC[C@]3(C)[C@H](CC[C@@H]4[C@@](C)(CC#N)[C@H](C(C)(C)/C=N/O)CC[C@]43C)[C@@H]12 test_value=5.7
molecule=C/N=C/C(C)(C)[C@@H]1CC[C@]2(C)[C@H](C(=O)C=C3[C@@H]4C[C@@](C)(C(=O)OC)CC[C@]4(C)CC[C@]32C)[C@@]1(C)CC#N test_value=15.1
molecule=CC(C)(/C=N/O)[C@@H]1CC[C@]2(C)[C@H](CC[C@@H]3[C@H]4[C@H]5OC[C@@]4(CCC5(C)C)CC[C@]32C)[C@@]1(C)CC#N test_value=7.2
molecule=C=C(C)[C@@H]1CC[C@]2(C(=O)O)CC[C@]3(C)[C@H](CC[C@@H]4[C@@]5(C)C/C(=N\O)[C@H](O)C(C)(C)[C@@H]5CC[C@]43C)[C@@H]12 test_value=6.8
molecule="COC(=O)[C@@]1(C)CCC2(C)CC[C@]3(C)C(=CC(=O)[C@@H]4[C@@]5(C)C/C(=N\\O)[C@H](O)C(C)(C)[C@@H]5CC[C@]43C)[C@@H]2C1 (single isomer, unassigned)" test_value=3.4
molecule=C=C(C)[C@@H]1CC[C@]2(C(=O)O)CC[C@]3(C)[C@H](CC[C@@H]4[C@@]5(C)C/C(=N\O)C(=O)C(C)(C)[C@@H]5CC[C@]43C)[C@@H]12 test_value=64.1

====

assay: Selectivity ratio of MTD for human MT-4 cells to EC50 for HIV-1 zmb infected in human MT-4 cells; type: ADME, cell-based, MT4
parameter: selectivity ratio

smiles_structure=C=C(C)[C@@H]1CC[C@]2(C(=O)O)CC[C@]3(C)[C@H](CC[C@@H]4[C@@](C)(CC#N)[C@H](C(C)(C)/C=N/O)CC[C@]43C)[C@@H]12 test_value=50
smiles_structure=C=C(C)[C@@H]1CC[C@]2(C(=O)OC)CC[C@]3(C)[C@H](CC[C@@H]4[C@@]5(C)C(C#N)=CC(C)(C)[C@@H]5CC[C@]43C)[C@@H]12 test_value=3.2
smiles_structure=C=C(C)[C@@H]1CC[C@]2(C(=O)O)CC[C@]3(C)[C@H](CC[C@@H]4[C@@]5(C)C/C(=N\O)C(=O)C(C)(C)[C@@H]5CC[C@]43C)[C@@H]12 test_value=51.5
